readout-type: logP

Known logP results, listed for orientation:
>>> value_reported("CCc1cc(=S)ss1")
2.31
>>> value_reported("S=c1cc(Cc2ccccc2)ss1")
3.43
>>> value_reported("CCc1ssc(=S)c1C")
2.95
>>> value_reported("Cc1ssc(=S)c1-c1ccccc1")
3.17
>>> value_reported("O=c1sscc1-c1ccccc1")
2.64
>>> value_reported("O=c1cc(-c2ccccc2)ss1")
3.01
>>> value_reported("Cc1ssc(=O)c1-c1ccccc1")
2.93

1: CCc1cssc1=O
2: Cc1c(-c2ccccc2)ssc1=S
3: O=c1ccss1
Request: Order the records, beginning with the lowest logP and ending with the highest. # output: labels, in the requested order
Response: 3, 1, 2
(3: 0.82, 1: 1.9, 2: 3.95)

====

readout-type: logP

>>> value_reported("CCCc1cssc1=O")
2.38
>>> value_reported("S=c1ssc2c1CCCCCC2")
3.75
>>> value_reported("S=c1ccss1")
1.58
>>> value_reported("S=c1cc(-c2ccccc2)ss1")
3.67
>>> value_reported("CCCc1cssc1=S")
3.18
>>> value_reported("Cc1cssc1=S")
2.18
>>> value_reported("O=c1ssc2ccccc12")
2.73
>>> value_reported("O=c1ssc2c1CCCC2")
2.4
>>> value_reported("S=c1ssc2c1CCC2")
2.53
>>> value_reported("Cc1cssc1=O")
1.33

1: CCCCc1cssc1=S
2: Cc1ssc(=S)c1C
3: Cc1cc(=O)ss1
Request: Order the records, beginning with the lowest logP and ending with the highest. # output: labels, in the requested order
Response: 3, 2, 1

A: CCc1ssc(=O)c1-c1ccccc1
B: Cc1cc(=S)ss1
Request: Hi team, can someone confirm which has the larger logP: A or B ? Thanks. Your answer should be the label attached to the chosen record.
Response: A

a: CCCCCc1cssc1=S
b: CCc1ssc(=O)c1CC
c: CCc1cc(=O)ss1
Request: Order the records, beginning with the lowest logP and ending with the highest. # output: labels, in the requested order
Response: c, b, a
(c: 1.69, b: 2.78, a: 4.06)

====

readout-type: logP

Known logP results, listed for orientation:
>>> value_reported("Cc1ssc(=O)c1C")
1.73
>>> value_reported("CCCc1cc(=S)ss1")
2.83
>>> value_reported("CCc1ssc(=S)c1-c1ccccc1")
3.52

P: COc1ccc(-c2cc(=S)ss2)cc1
Q: CCc1cssc1=S
Request: Of the pair P and Q , name the member with the lesser recorded logP. Your answer should be the label attached to the chosen record.
Response: Q
(Q: 2.67, P: 3.82)

====

readout-type: logP

Known logP results, listed for orientation:
>>> value_reported("CCc1ssc(=S)c1CC")
3.51
>>> value_reported("S=c1sscc1-c1ccccc1")
3.2
>>> value_reported("Cc1ssc(=S)c1Cc1ccccc1")
3.78
>>> value_reported("COc1ccc(-c2ssc(=S)c2C)cc1")
4.1
>>> value_reported("CCCc1c(C)ssc1=O")
2.96

1: CCCc1ssc(=S)c1CC
2: CCCc1cc(=O)ss1
Request: Hi team, can someone confirm which has the larger logP: 1 or 2 ? Thanks. Your answer should be the label attached to the chosen record.
Response: 1

====

readout-type: logP

>>> value_reported("CCCc1ssc(=S)c1C")
3.42
>>> value_reported("Cc1ccc(-c2cc(=S)ss2)cc1")
4.26
>>> value_reported("Cc1ccc(-c2cssc2=S)cc1")
3.73
>>> value_reported("S=c1ssc2ccccc12")
3.57
>>> value_reported("S=c1ssc2c1CCCCC2")
3.27
>>> value_reported("CCc1c(C)ssc1=S")
2.94
>>> value_reported("CCCc1c(C)ssc1=S")
3.39
